Where do the numbers come from? From patent US20200262913A1.

IC50, IL-31-induced STAT3 phosphorylation in NHK, Exp 10 values for the binders below.
# Target: T1, recombinant human IL-31 (as used in the NHK STAT3 phosphorylation assay of Example 5) (human, UniProt Q6EBC2 24-164, limits assumed)
# T1 sequence: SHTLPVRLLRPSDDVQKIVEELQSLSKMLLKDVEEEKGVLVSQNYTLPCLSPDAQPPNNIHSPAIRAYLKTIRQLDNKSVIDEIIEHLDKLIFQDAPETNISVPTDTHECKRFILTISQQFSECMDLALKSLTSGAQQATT
# Protocol details: cell-based or functional assay
Measured metric: IC50, IL-31-induced STAT3 phosphorylation in NHK, Exp 10 (nM)

[[record]]
binder = "humanized 292.12.3.1 construct clone 8 (12VH5-gly + fback) (antibody, human IgG4, V domains shown, also called 08) VH: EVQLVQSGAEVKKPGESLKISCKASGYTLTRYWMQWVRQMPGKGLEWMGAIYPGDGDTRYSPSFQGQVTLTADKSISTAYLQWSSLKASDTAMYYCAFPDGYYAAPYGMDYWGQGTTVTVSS VL: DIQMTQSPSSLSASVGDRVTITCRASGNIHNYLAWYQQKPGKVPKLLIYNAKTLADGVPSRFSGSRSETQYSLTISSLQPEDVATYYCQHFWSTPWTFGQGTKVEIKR"
result = 3.44

[[record]]
binder = "humanized 292.12.3.1 construct clone 36 (12VH1(germ)-gly + HC(F29L, T73K, R94F) + LC(F71Y)) (antibody, human IgG4, V domains shown) VH: QVQLVQSGAEVKKPGASVKVSCKASGYTLTRYWMQWVRQAPGQGLEWMGAIYPGDGDTRYSQKFQGRVTMTRDKSTSTVYMELSSLRSEDTAVYYCAFPDGYYAAPYGMDYWGQGTLVTVSS VL: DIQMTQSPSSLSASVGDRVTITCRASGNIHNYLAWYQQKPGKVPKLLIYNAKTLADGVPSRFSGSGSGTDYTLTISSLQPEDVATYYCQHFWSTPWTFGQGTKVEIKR"
result = 8.95

[[record]]
binder = "humanized 292.12.3.1 construct clone 35 (12VH1-gly + HC(F29L, R94F)) (antibody, human IgG4, V domains shown) VH: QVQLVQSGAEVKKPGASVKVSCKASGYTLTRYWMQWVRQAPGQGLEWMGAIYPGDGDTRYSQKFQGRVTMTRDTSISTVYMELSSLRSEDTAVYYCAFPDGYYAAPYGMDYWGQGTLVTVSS VL: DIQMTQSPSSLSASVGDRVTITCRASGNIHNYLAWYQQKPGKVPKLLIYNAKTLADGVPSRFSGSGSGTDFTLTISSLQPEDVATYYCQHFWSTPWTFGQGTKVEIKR"
result = 12

[[record]]
binder = "humanized 292.12.3.1 construct clone 33 (12VH1(germ)-gly + fback) (antibody, human IgG4, V domains shown) VH: QVQLVQSGAEVKKPGASVKVSCKASGYTLTRYWMQWVRQAPGQGLEWMGAIYPGDGDTRYSQKFQGRVTLTADKSTSTAYMELSSLRSEDTAVYYCAFPDGYYAAPYGMDYWGQGTLVTVSS VL: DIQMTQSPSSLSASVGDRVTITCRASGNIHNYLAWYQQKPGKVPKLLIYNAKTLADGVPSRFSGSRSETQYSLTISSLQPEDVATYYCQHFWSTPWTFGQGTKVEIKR"
result = 13.6

[[record]]
binder = "humanized 292.12.3.1 construct clone 7 (12VH1-gly + fback) (antibody, human IgG4, V domains shown, also called 07) VH: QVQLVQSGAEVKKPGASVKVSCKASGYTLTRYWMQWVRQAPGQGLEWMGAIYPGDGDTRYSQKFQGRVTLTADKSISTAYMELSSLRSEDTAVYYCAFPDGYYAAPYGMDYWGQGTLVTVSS VL: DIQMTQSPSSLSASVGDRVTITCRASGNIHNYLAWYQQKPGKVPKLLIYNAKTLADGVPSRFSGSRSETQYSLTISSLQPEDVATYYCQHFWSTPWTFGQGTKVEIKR"
result = 8.82

